- assay_summary: Drug level in C57/B6 mouse liver at 10 mg/kg, ip after 7 hrs
- Assay type: ADME, organism-based
- Set-up: dose 10 mg/kg, route intraperitoneal
- condition_summary: read-out: Drug uptake
observed_property: concentration at 7 h (µM)
Provide the reading as a plain figure in µM.

Record request: concentration at 7 h value, item O=C(O)COc1c(C(=O)O)sc(-c2cccc(NC3CCN(S(=O)(=O)Cc4ccccc4)CC3)c2)c1Br
0.17

---

- assay_summary: Half life in Sprague-Dawley rat at 2 mg/kg, iv
- Format: ADME, organism-based
- Set-up: dose 2 mg/kg, route intravenous
- condition_summary: in vivo
observed_property: half-life (h)
Your answer should be a plain number; it is taken to be in h.

Dear colleague, I am looking for the recorded half-life of the following compound: O=C(O)COc1c(C(=O)O)sc(-c2cccc(NC3CCN(S(=O)(=O)Cc4ccccc4)CC3)c2)c1Br
10
